Kindly supply the reported melting point values for the records listed here.

melting point for N#Cc1ccc(N2CCNCC2)cc1 ? 82 to 84 °C

melting point for Nc1c([N+](=O)[O-])ccc2ncccc12 ? 272 to 273 °C

melting point for Cc1nsc(N)n1 ? 202 to 209 °C

melting point for Cc1onc(-c2ccc(F)cc2)c1C(=O)Cl ? 51 to 55 °C

melting point for CCCCCCCCc1ccc(/N=N/c2ccc(OC(=O)CCCCCCC)cc2)cc1 ? 58 to 63 °C

melting point for CCOC(=O)c1cc(C(=O)CBr)on1 ? 71 to 73 °C

melting point for O=C(CBr)c1cccc(Cl)c1 ? 39 to 41 °C

melting point for CCOC(=O)c1c(C)nsc1N ? 111 to 113 °C

melting point for CSc1nn2c(=O)c(C)nnc2s1 ? 196 °C

melting point for OCc1cccc2ccsc12 ? 76.5 to 78 °C

melting point for Fc1ccc(C(Br)Br)c(C(Br)Br)c1 ? 92 to 97 °C

melting point for O=C1C2ON(c3ccccc3)C(c3ccccc3)C2C(=O)N1c1ccccc1 (centres undefined) ? 151 to 152 °C

melting point for Nc1ccccc1-c1cnco1 ? 54 to 56 °C

melting point for Cc1c(C=O)cnn1-c1ccccc1 ? 76 to 77 °C

melting point for COC(=O)c1cccc(OC)c1OC ? 46 to 49 °C

melting point for C=C(C)n1c(=O)[nH]c2ccccc21 ? 120 to 124 °C

melting point for Cc1cc(C(=O)O)c(C)n1Cc1cccs1 ? 184 to 187 °C

melting point for O=[N+]([O-])c1ccc(NN=Cc2cccc3c(Br)cccc23)cc1 ? 267 to 268 °C

melting point for Cc1cc(C)nc(Cl)n1 ? 34 to 36 °C

* * *

observedProperty: melting point

melting point for CCOC1Oc2ccc(C)cc2C(=O)/C1=C/Nc1nc2ccc(Cl)cc2s1 (centres undefined) ? 146 to 148 °C

melting point for OCC1OC(c2ccccc2)OC1CO (single isomer, unassigned; (+)) ? 69 to 74 °C

melting point for O=C(O)c1cccc2c1-c1ccccc1C2 ? 192 to 194 °C

melting point for CCOC(=O)NC(=S)Nc1ncccc1C ? 124 to 126 °C

melting point for COc1ccc([N+](=O)[O-])cc1Cl ? 94 to 96 °C

melting point for O=Cc1cccn1-c1cc(Cl)cc(Cl)c1 ? 150 to 152 °C

melting point for COc1cc(O)c2c(=O)c(O[C@@H]3O[C@H](CO)[C@H](O)[C@H](O)[C@@H]3O[C@@H]3O[C@H](C)[C@H](O)[C@H](O)[C@@H]3O)c(-c3cccc(O)c3)oc2c1 ? 182 to 188 °C

melting point for CC(C)(C)c1ccc(-c2nnc(S)n2Cc2ccco2)cc1 ? 156 to 158 °C

melting point for NNC(=O)CSc1ccnc2cc(Cl)ccc12 ? 213 to 216 °C

melting point for Cc1cc(=O)[nH]cc1Br ? 196 to 201 °C

melting point for N#Cc1cccc2c1-c1ccccc1C2 ? 77 to 79 °C

melting point for O=[N+]([O-])c1ccccc1-c1nc(-c2ccccc2)c(-c2ccccc2)[nH]1 ? 235 to 238 °C

melting point for O=C(O)[C@@H]1Cc2c([nH]c3ccccc23)CN1 ? 295 to 296 °C

melting point for N#Cc1ccc(F)cc1[N+](=O)[O-] ? 71 to 73 °C

melting point for ON=Cc1ccccc1Cl ? 72 to 77 °C

melting point for FC(F)(F)c1cccc(Cl)n1 ? 33 to 35 °C

melting point for COc1ccc2cc(C(=O)c3ccccc3)c(=O)oc2c1 ? 150 to 153 °C

melting point for COc1cccc2cc(C(=O)C3CC(C)(c4ccccc4)C3)oc12 (centres undefined) ? 104 to 105 °C

melting point for COC(=O)c1ccc(C(=O)OC)c(N)c1 ? 132 to 134 °C

* * *

Kindly supply the reported melting point values for the records listed here.
Number only, in °C; omit the unit.

melting point for O=C(OOC(=O)c1ccc(Cl)cc1Cl)c1ccc(Cl)cc1Cl ? 106

melting point for COC(=O)C(C)(C)C(CC(=O)O)c1ccccc1 (centres undefined) ? 111

melting point for COc1ccc(Br)c([N+](=O)[O-])c1 ? 31

* * *

observedProperty: melting point

melting point for O=C(c1c[nH]c2ccccc12)C(F)(F)F ? 211 to 214 °C

melting point for Cc1c(C(=O)O)nnn1-c1cccc(C(F)(F)F)c1 ? 155 to 156 °C

melting point for CC(=O)Nc1ccc(F)cc1Cl ? 117 to 120 °C

melting point for Cn1cnnc1-c1cccc(N)c1 ? 158 to 159 °C

melting point for COc1ccc(/N=N/c2c(N)nn3c(C)cc(C)nc23)cc1 ? 201 to 203 °C

melting point for O=C(O)CSC(=S)SCC(=O)O ? 170 to 175 °C

melting point for O=C(O)C1CCC(c2ccc(Cl)cc2)CC1 (centres undefined) ? 250 to 255 °C

melting point for CC(NC(CCCNC(=N)N)C(=O)O)C(=O)O (single isomer, unassigned; (+)) ? 283 to 284 °C

melting point for Cc1cnnc2c1-c1nonc1CC2 ? 155 to 158 °C

* * *

Kindly supply the reported melting point values for the records listed here.

melting point for CSC(=NS(=O)(=O)c1ccccc1)SC ? 105 to 107 °C

melting point for COc1ccc(OCC(O)CN)cc1 (stereo not drawn) ? 110 to 112 °C

melting point for O=C(O)c1ccc(=O)[nH]c1 ? 314 to 316 °C

* * *

observedProperty: melting point

melting point for Nc1ccc(I)cc1C(=O)O ? 219 to 221 °C

melting point for O=Cc1ccc(-c2ccccc2)nc1 ? 57 to 59 °C

melting point for Cn1c(=O)c2c(ncn2CCCl)n(C)c1=O ? 122 to 127 °C

melting point for Cc1nnc(SCc2ccccc2)n1N=Cc1ccc(N(C)C)cc1 ? 47 to 49 °C

melting point for O=C(O)c1cncc(-c2ccco2)c1 ? 261 to 263 °C

* * *

Kindly supply the reported melting point values for the records listed here.

melting point for O=[N+]([O-])c1cccc(-c2nnc3n2NC(c2ccccc2)S3)c1 (stereo unspecified) ? 205 °C

melting point for O=Cc1ccc(C(F)(F)F)nc1 ? 53 to 55 °C

melting point for Cn1nc(-c2ccc(Cl)cc2)cc1N ? 150 to 152 °C

melting point for N#CCS(=O)(=O)c1ccc(Cl)cc1Cl ? 118 to 121 °C

melting point for CCCCCCCCc1ccc(C(=O)CCC(=O)O)cc1 ? 91 to 93 °C

melting point for CC1(C)OC(=O)C(=NNc2ccc(Br)cc2)C(=O)O1 ? 259 to 260 °C

melting point for COC(=O)c1sccc1N=C=S ? 57 to 59 °C

melting point for O=[N+]([O-])c1cc2nccnc2cc1Br ? 221 to 227 °C

melting point for N#Cc1cc(C#N)c(C#N)cc1C#N ? 267 to 270 °C

melting point for NC(Cc1ccc([N+](=O)[O-])cc1)C(=O)O (racemic) ? 236 to 237 °C

melting point for ON=Cc1sccc1Oc1ccccc1 ? 105 to 106 °C

* * *

observedProperty: melting point (°C)
Number only, in °C; omit the unit.

melting point for CCN(C(C)=O)c1ccccc1 ? 55

melting point for O=C(OCC1(COC(=O)c2cccnc2)CCCC(COC(=O)c2cccnc2)(COC(=O)c2cccnc2)C1O)c1cccnc1 ? 178

melting point for CCN1CCCC1CNC(=O)c1cc(S(N)(=O)=O)ccc1OC (stereo not drawn) ? 178

melting point for CC(=O)NCc1c(I)c(NC(C)=O)c(I)c(C(=O)O)c1I ? 255

melting point for O=NN(CCCl)C(=O)NC1CCCCC1 ? 90

melting point for Nc1ccc(-c2ccc(Cl)cc2)cc1 ? 134

melting point for O=C1c2ccccc2C(=O)N1c1ccccc1 ? 210

melting point for NS(=O)(=O)c1cc(Cl)c(Cl)cc1Cl ? 189

melting point for c1ccc2c(c1)CNC2 ? 17

melting point for c1cc2c3c(cccc3c1)CNC2 ? 99

melting point for O=S(=O)(Cl)c1c(Cl)cc(Br)cc1Cl ? 45

melting point for Cc1cc(/C=C/c2ccccc2N)c([N+](=O)[O-])cc1[N+](=O)[O-] ? 175

melting point for O=C(O)c1ncc[nH]1 ? 198

* * *

Kindly supply the reported melting point values for the records listed here.

melting point for COc1cc(C(C)=O)ccc1F ? 52 to 54 °C

melting point for Cc1ccc(O)c(C(=O)CC(=O)c2ccccc2)c1 ? 92 to 94 °C

melting point for CC(CCC(O)(Cl)Cl)C1CCC2C3C(O)CC4CC(O)CCC4(C)C3CC(O)C12C (centres undefined) ? 162 to 170 °C

melting point for CN(C)c1nc2ccccc2cc1C=O ? 52 to 53 °C

melting point for COC(=O)c1sc2ccccc2c1N ? 107 to 108 °C

melting point for CSC(S)=Nc1ccc(Cl)cc1 ? 112 to 113 °C

melting point for Oc1c(Cl)c(O)c(Cl)c(O)c1Cl ? 136 °C

melting point for CCCCNC(=O)OC#CCI ? 66 °C

melting point for CC1(C)CCC(Cc2ccc(Cl)cc2)C1(O)Cn1cncn1 (centres undefined) ? 112 °C
